System: L1210
method_description: Cytotoxicity against mouse L1210 cells after 72 hrs by MTT assay
Assay type: functional, cell-based
test_context: L1210, 72 h
pIC50: −log10 of the molar value.
The label depends only on pIC50: t if it is at least 5, f if it is smaller.

| compound | classification |
| --- | --- |
| COc1cccc(C2C=C(c3cc(OC)c(OC)c(OC)c3)NC(=S)N2)c1 (configuration not stated) | f |
| COc1cc(C2=CC(c3cc(OC)c(OC)c(OC)c3)NC(=S)N2)cc(OC)c1OC (configuration not stated) | f |
| COc1ccc(C2C=C(c3cc(OC)c(OC)c(OC)c3)NC(=S)N2)cc1OC (configuration not stated) | f |

Hello, I need to know if COc1cc(OC)c(C2C=C(c3cc(OC)ccc3OC)NC(=S)N2)c(OC)c1 (configuration not stated) has measured pIC50 not below 5. Thanks!
t

Hello, I need to know if COc1ccc(OC)c(C2C=C(c3cc(OC)c(OC)c(OC)c3)NC(=S)N2)c1 (configuration not stated) has measured pIC50 not below 5. Thanks!
f

Hello, I need to know if COc1ccc(OC)c(C2=CC(c3ccc(OC)c([N+](=O)[O-])c3)NC(=S)N2)c1 (configuration not stated) has measured pIC50 not below 5. Thanks!
t

Hello, I need to know if COc1cc(OC)c(C2C=C(c3cc(OC)c(OC)c(OC)c3)NC(=S)N2)c(OC)c1 (configuration not stated) has measured pIC50 not below 5. Thanks!
t

---

Test system: L1210
method_description: Cytotoxicity against mouse L1210 cells after 72 hrs by MTT assay
Type: functional, cell-based
test_context: L1210, 72 h
Provide the reported pIC50 of each item.
Numbers only, as −log10 of the molar value.

Some solved cases for reference:
| molecule | study_target | pIC50 |
| --- | --- | --- |
| COc1cc(C2=CC(c3ccc(Cl)cc3)NC(=S)N2)cc(OC)c1OC (stereo not given) | L1210 | 4.32 |
| COc1ccc(/C=C\c2cc(OC)c(OC)c(OC)c2)cc1O [COMBRETASTATIN A4] | L1210 | 8.70 |

Consider the additional molecule presented here.
Name the recorded pIC50 of the item COc1ccc(C2C=C(c3cc(OC)c(OC)c(OC)c3)NC(=S)N2)cc1O (stereo not given) in your answer.
6.30
